# measured.target: rabbit reticulocyte 15-LO (Oryctolagus cuniculus, UniProt P12530)
# Sequence (P12530 1-663): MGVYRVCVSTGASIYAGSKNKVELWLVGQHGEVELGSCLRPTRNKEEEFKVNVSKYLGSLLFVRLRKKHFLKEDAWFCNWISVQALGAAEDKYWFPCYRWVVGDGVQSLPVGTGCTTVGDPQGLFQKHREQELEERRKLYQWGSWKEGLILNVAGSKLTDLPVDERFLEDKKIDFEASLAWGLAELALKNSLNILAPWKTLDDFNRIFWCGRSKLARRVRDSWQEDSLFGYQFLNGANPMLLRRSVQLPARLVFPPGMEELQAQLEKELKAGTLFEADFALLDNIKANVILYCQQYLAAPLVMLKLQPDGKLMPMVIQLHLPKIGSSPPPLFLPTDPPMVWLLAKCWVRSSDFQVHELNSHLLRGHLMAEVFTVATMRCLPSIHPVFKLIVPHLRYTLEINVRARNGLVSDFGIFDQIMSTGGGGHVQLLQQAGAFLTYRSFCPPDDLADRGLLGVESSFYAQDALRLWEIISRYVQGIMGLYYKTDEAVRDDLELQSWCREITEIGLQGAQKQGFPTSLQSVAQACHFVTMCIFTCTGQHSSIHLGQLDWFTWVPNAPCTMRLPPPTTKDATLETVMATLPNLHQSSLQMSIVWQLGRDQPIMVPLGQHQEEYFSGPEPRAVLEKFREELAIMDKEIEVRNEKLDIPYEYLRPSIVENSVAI
measurement.label: log10(IC50) (log10 of the value in nM)
Response schema: value (number) is log10 of IC50 in units of nM.

Worked set:
cpd.smiles: O=c1[nH]sc2nc(N3CCCCC3)ncc12
test.result: 3.51
//
cpd.smiles: O=c1c2cnc(-c3ccccc3)nc2sn1CCc1ccccn1
test.result: 2.46
//
cpd.smiles: O=c1c2cnc(N3CCCCC3)nc2sn1CCc1ccccn1
test.result: 3.11

get_value(item= CN(C)c1ncc2c(=O)n(Cc3ccccn3)sc2n1 , readout=log10(IC50)) returns 2.60

get_value(item= CN(C)c1ncc2c(=O)n(CCN3CCCCC3)sc2n1 , readout=log10(IC50)) returns 2.20

get_value(item= O=c1c2cnc(-c3ccccc3)nc2sn1Cc1ccccc1 , readout=log10(IC50)) returns 2.48

get_value(item= CN(C)c1ncc2c(=O)n(CCc3ccccn3)sc2n1 , readout=log10(IC50)) returns 3.23

* * *

# measured.target: rabbit reticulocyte 15-LO (Oryctolagus cuniculus, UniProt P12530)
# Construct: rabbit reticulocyte 15-LO; from tissue; host or cells: rabbit reticulocytes
# test.name: Colorimetric Assay of 15-LO Inhibition
# Type: biochemical
# details: colorimetric method
Cut-off 40% on inhibition at 10 µM, inclusive. At or above means yes (1); below means no (0).

cpd.smiles: NS(=O)(=O)c1ccc(-n2sc3ccccc3c2=O)cc1
discrete.label: no (0)

Would you kindly look at the next entry?
Prompt: Hi, just wondering whether COc1ccc(-c2ccc3c(=O)n(CCN(C)C)sc3n2)cc1OC shows inhibition at 10 µM of 40% or higher.
Response: yes (1)

* * *

# measured.target: HIV-1 Nucleocapsid Protein (NCp7) (Human immunodeficiency virus type 1 group M subtype B)
# Construct: The NCp7 protein containing 2 Zn-fingers and 2 Zn ions
# test.name: Fluorescence-based (TSQ) assay of zinc ejection from purified HIV-1 NCp7
# Assay type: biochemical
# details: 10 μM compound, 2.8 μM NCp7, 47 μM TSQ, pH 7.4, 26° C., 90 minutes
Cut-off 80% on % Zn Extrusion Relative to Control, inclusive. At or above means MET; below means NOT MET.

These recorded examples may help you get a feel for the data.
compound: O=c1c2ccccc2sn1-c1ccccc1 [Example 15, 2-Phenyl-3-oxo-3h-benz[d]isothiazole]
discrete.label: MET
//
compound: CC[C@H](C)[C@@H](C(=O)O)n1sc2ccccc2c1=O
discrete.label: NOT MET

Prompt: Hi, just wondering whether NS(=O)(=O)c1ccc(NC(=O)c2ccccc2S)cc1 shows % Zn Extrusion Relative to Control of 80% or higher.
Response: NOT MET

Prompt: Hi, just wondering whether CC(C)C(C(=O)O)n1sc2ccccc2c1=O (centres unmarked) shows % Zn Extrusion Relative to Control of 80% or higher.
Response: NOT MET

* * *

# measured.target: HIV-1 Nucleocapsid Protein (NCp7) (Human immunodeficiency virus type 1 group M subtype B)
# Construct: The NCp7 protein containing 2 Zn-fingers and 2 Zn ions
# test.name: Fluorescence-based (TSQ) assay of zinc ejection from purified HIV-1 NCp7
# Assay type: biochemical
# details: 10 μM compound, 2.8 μM NCp7, 47 μM TSQ, pH 7.4, 26° C., 90 minutes
Measured % Zn Extrusion Relative to Control of individual entries
Just the number please, in %, no unit attached.

Worked set:
cpd.smiles: Cc1ccnc(-n2sc3ccccc3c2=O)c1
measured.target: HIV-1 Nucleocapsid Protein (NCp7) (Human immunodeficiency virus type 1 group M subtype B)
% Zn Extrusion Relative to Control [%]: 100
--
cpd.smiles: O=C(O)Cn1sc2ccccc2c1=O
measured.target: HIV-1 Nucleocapsid Protein (NCp7) (Human immunodeficiency virus type 1 group M subtype B)
% Zn Extrusion Relative to Control [%]: 75
--
cpd.smiles: NS(=O)(=O)c1ccc(-n2sc3ccccc3c2=O)cc1
measured.target: HIV-1 Nucleocapsid Protein (NCp7) (Human immunodeficiency virus type 1 group M subtype B)
% Zn Extrusion Relative to Control [%]: 100

Read the next record carefully.
get_value(item= O=C(O)Cc1ccc(-n2sc3ccccc3c2=O)cc1 , readout=% Zn Extrusion Relative to Control) returns 89

* * *

# test.name: CEM cell assay, toxicity (growth inhibition)
# Format: cell-based
# details: human, cem cells; Toxic concentration which inhibits the growth of cells 50% relative to control; read-out: CEM Cell Assay TC50
measurement.label: CC50

Worked set:
compound: CC(C)C(C(=O)O)n1sc2ccccc2c1=O (stereo not drawn)
CC50: > 100 µM

compound: CC[C@H](C)[C@@H](C(=O)O)n1sc2ccccc2c1=O
CC50: > 100 µM

Read the next record carefully.
get_value(item= O=C(O)CCCn1sc2ccccc2c1=O , readout=CC50) returns > 100 µM

* * *

# measured.target: rabbit reticulocyte 15-LO (Oryctolagus cuniculus, UniProt P12530)
# Sequence (P12530 1-663): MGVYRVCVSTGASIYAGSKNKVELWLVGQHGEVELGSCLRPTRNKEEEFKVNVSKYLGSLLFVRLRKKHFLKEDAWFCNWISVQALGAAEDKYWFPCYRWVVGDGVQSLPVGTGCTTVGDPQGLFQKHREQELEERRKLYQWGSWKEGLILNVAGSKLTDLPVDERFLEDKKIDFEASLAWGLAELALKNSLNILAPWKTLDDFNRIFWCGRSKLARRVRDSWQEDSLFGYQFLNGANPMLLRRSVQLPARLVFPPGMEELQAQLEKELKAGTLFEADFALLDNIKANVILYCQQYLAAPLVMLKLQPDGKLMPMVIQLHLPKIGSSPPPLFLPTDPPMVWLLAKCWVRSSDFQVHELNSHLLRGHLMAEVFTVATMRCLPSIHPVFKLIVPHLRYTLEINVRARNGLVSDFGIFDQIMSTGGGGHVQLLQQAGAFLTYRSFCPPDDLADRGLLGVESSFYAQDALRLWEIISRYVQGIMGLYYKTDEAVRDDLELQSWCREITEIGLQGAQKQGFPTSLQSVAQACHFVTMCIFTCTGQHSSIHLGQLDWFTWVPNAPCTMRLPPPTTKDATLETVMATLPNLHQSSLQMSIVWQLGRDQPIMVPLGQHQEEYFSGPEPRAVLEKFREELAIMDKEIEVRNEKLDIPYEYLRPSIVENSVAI
Measured IC50 of individual entries
Just the number please, in nM, no unit attached.

Worked set:
cpd.smiles: O=c1c2cnc(N3CCOCC3)nc2sn1CCN1CCCCC1
test.result: 120

cpd.smiles: O=c1c2cnc(-c3ccccc3)nc2sn1CCN1CCOCC1
test.result: 270

cpd.smiles: O=c1c2cnc(-c3ccccc3)nc2sn1Cc1ccccn1
test.result: 390

Read the next record carefully.
get_value(item= O=c1c2cnc(-c3ccccc3)nc2sn1CCc1ccccc1 , readout=IC50) returns 760

* * *

Measured inhibition at 10 µM of individual entries
# measured.target: rabbit reticulocyte 15-LO (Oryctolagus cuniculus)
# Construct: rabbit reticulocyte 15-LO; from tissue; host or cells: rabbit reticulocytes
# test.name: Colorimetric Assay of 15-LO Inhibition
# Assay type: biochemical
# details: colorimetric method

Worked set:
cpd.smiles: CC(=O)NS(=O)(=O)c1ccc(-n2sc3ccccc3c2=O)cc1
inhibition at 10 µM: 75%
//
cpd.smiles: CCN(CC)CCn1sc2nc(-c3ccccc3)ncc2c1=O
inhibition at 10 µM: 95%

Read the next record carefully.
get_value(item= CN(C)CCn1sc2nc3ccccc3cc2c1=O , readout=inhibition at 10 µM) returns 22%
